These entries and their values trace back to patent US8846705B2.

Structures can show the parent of a compound that is named as a salt.
readoutType: melting point

• Cc1nc2c(C)cc(Oc3cnc(N)nc3N)c(C(C)C)c2o1 (as salt: hydrochloride) = > 300 °C
• CC(C)c1cc2c(cc1Oc1cnc(N)nc1N)OCCN2C = 167.3 to 170.1 °C
• Cc1cn(C)c2cc(C(F)(F)F)c(Oc3cnc(N)nc3N)cc12 (as salt: hydrochloride) = 256 °C
• COc1cc(C(C)C)c(Oc2cnc(N)nc2N)cc1-c1ncon1 (as salt: trifluoroacetic acid salt) = 135 to 138.5 °C
• COc1cc(C(C)C)c(Oc2cnc(N)nc2N)cc1-c1ccco1 = 253.7 to 254.6 °C
• COc1cc(C(C)C)c(Oc2cnc(N[C@H](C)CO)nc2N)cc1Cl (as salt: hydrochloride) = 111.4 to 116.9 °C
• Cc1c(C(=O)O)[nH]c2cc(Oc3cnc(N)nc3N)c(C(C)C)cc12 = > 300 °C
• COc1cc(C(C)C)c(Oc2cnc(N)nc2N)cc1N1CCN(S(C)(=O)=O)CC1 = 115 to 117 °C
• CNC(=O)OC[C@@H](C)Nc1ncc(Oc2cc(Cl)c(OC)cc2C(C)C)c(N)n1 (stereo in doubt) = 63.5 to 69.4 °C
• CCc1c(Oc2cnc(N)nc2N)cc(C)c2sccc12 = 181 °C
